B1: library; numbered along this chain (parent)
chain: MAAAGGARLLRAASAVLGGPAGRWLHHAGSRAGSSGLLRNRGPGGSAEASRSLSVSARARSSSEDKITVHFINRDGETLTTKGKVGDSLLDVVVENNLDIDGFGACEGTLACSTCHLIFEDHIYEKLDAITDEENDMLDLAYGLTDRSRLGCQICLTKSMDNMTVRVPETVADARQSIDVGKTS

- Variants of: B1
- test method notes: scaled log2 fold change in cell abundance, elesclomol vs control (0 = silent mean, 1 = nonsense mean) (scaled log2 ratio); higher = higher viability under elesclomol (loss of FDX1 cuproptosis function);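 further: variant abundance is its share of total variant reads in each endpoint sample, from next-generation sequencing of the integrated ORF PCR-amplified out of genomic DNA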
- condition details: with ABC1 FDX1 KO; elesclomol 5 nM; glucose 10 mM; 14 days
property label: scaled log2 fold change
Please respond with just the number, no unit label.

- mutation annotation: "C152T"
  scaled log2 fold change: 1.06
- mutation annotation: "G42T"
  scaled log2 fold change: 0.268
- mutation annotation: "D136E"
  scaled log2 fold change: 0.196
- mutation annotation: "A141Y"
  scaled log2 fold change: -0.374
- mutation annotation: "F71S"
  scaled log2 fold change: 0.983

Exercise: scaled log2 fold change for A28V ?
Solution: 0.133

Exercise: scaled log2 fold change for S14M ?
Solution: 0.348

Exercise: scaled log2 fold change for V55R ?
Solution: 0.114

Exercise: scaled log2 fold change for S88G ?
Solution: 0.17

Exercise: scaled log2 fold change for D179N ?
Solution: 0.063

Exercise: scaled log2 fold change for N96W ?
Solution: -0.0659
